test system: HaCat; test: Cytotoxic Profiling of Annotated Libraries Using Quantitative High-Throughput Screening (AID 1296008); conditions: Five cell lines viability, CellTiter-Glo ATP luminescence, 48-72 h; further: nearly all actives have a fitted effect of over 60% in size
Results filed as inconclusive are left out. The source made the active and inactive calls. The call rests on the fitted dose curve; in most records, active means well fitted inhibition curve with a large enough effect; inconclusive means small, poorly fitted or top-dose-only effect; inactive means flat fitted curve, though single readings scatter.
Classes used: t = active, f = inactive

compound=CN1CCN(C2=Nc3ccccc3Nc3ccc(Cl)cc32)CC1 grouplabel=f
compound=Cc1cc2c(c(=O)o1)C=C1CC[C@H]([C@H](C)Cn3cnc(=N)c4[nH]cnc43)C[C@@H]1O2 grouplabel=f
compound="CC#CCn1c(N2CCCC(N)C2)nc2c1c(=O)n(Cc1nc(C)c3ccccc3n1)c(=O)n2C (stereo not given)" grouplabel=f
compound=NC(=O)CCCSc1nc(N)nc(-c2c(Cl)cc3c4c(cccc24)COC3)n1 grouplabel=t
compound="C=C1CCC2C(C)(C)CCCC2(C)C1CC/C(C)=C\\CO (stereo not given)" grouplabel=f
